Numbers sourced from PubChem BioAssay (NCI).

Test system: MALME-3M melanoma
Experiment: NCI tumour cell line growth inhibition, 48 h
measurement name: TGI

>  <molecule>
CC1=NN(c2cccc(Cl)c2)C(=O)/C1=C\C=C\c1ccccc1

>  <measurement name>
TGI

>  <observed value>
9.19 µM

$$$$
>  <molecule>
COc1ccc(/C=C2\CCC(C)c3c2nc(N)c(C#N)c3-c2ccc(OC)c(OC)c2)cc1OC (stereo not given)

>  <measurement name>
TGI

>  <observed value>
> 100 µM

$$$$
>  <molecule>
CC(C)OC(=O)C1(C(C)C)CCc2ccc(C(=O)CCC(=O)O)cc21 (stereo not given)

>  <measurement name>
TGI

>  <observed value>
> 100 µM

$$$$

Give reported TGI for COc1c(B(O)O)cccc1-c1nc2ccc3[nH]ncc3c2c2c1CCCC2 (MALME-3M melanoma)
6.86 µM

Give reported TGI for Cc1cc(N(CCC#N)CCC#N)ccc1/C=C(\NC(=O)/C=C/c1ccccc1)C(=O)Nc1ccc(Cl)cc1 (MALME-3M melanoma)
> 50.9 µM

---

Tested on: SW-620 colon
Assay: NCI tumour cell line growth inhibition, 48 h
# GI50 per record follows

Look over these answered cases.
>  <molecule>
CC(C)c1[nH]nc2c(NCc3ccc(-c4ccccn4)cc3)nc(SCCN)nc12

>  <subject of test>
SW-620 colon

>  <GI50>
0.012 µM

$$$$
>  <molecule>
CC(C)c1[nH]nc2c(NCc3ccc(-c4ccccn4)cc3)nc(SCCN(C)C)nc12

>  <subject of test>
SW-620 colon

>  <GI50>
< 0.0135 µM

$$$$

Identify measured GI50 associated with Cn1cc(C2=C(c3cc[nH]c3)C(=O)NC2=O)c2ccccc21
> 25 µM

Identify measured GI50 associated with O=C(NCc1ccco1)C1CCN(S(=O)(=O)c2ccc(Cl)cc2)CC1
> 100 µM

Identify measured GI50 associated with CCN(CC)S(=O)(=O)c1cccc(-c2ccc3c(NC(=O)C4CC4)n[nH]c3c2)c1
2.27 µM

Identify measured GI50 associated with OC(CN1CCCC2CCCCC21)c1cc2ccccc2c2ccccc12 (centres undefined)
1.66 µM

Identify measured GI50 associated with CC(=O)O[C@@H]1C2=C(C)C3(CC3)[C@@](C)(O)C(=O)C2=C[C@@]1(C)CO
0.355 µM

Identify measured GI50 associated with CN(C)CC1C(=O)O[C@H]2[C@H]1CC/C(COC(=O)NCc1ccc(Cn3c(=O)sn(CCCI)c3=O)cc1)=C\CC[C@@]1(C)O[C@@H]21 (some centres undefined)
0.998 µM

Identify measured GI50 associated with CNCC(=O)NC(CO)C(=O)NC(CO)C(=O)NC1C(C(N)=O)OC(n2ccc(N)nc2=O)C(O)C1O (centres undefined)
> 50 µg/mL

---

System: SF-539 CNS
Assay: NCI tumour cell line growth inhibition, 48 h
measurement name: log10 TGI (log10 of the value in µM)
All values: base-10 log of TGI in µM.

Look over these answered cases.
>  <molecule>
Cn1c2c(c3ccccc3c1=O)C(=O)c1ccccc1-2

>  <log10 TGI>
1.77

$$$$
>  <molecule>
O=C1C(c2c(O)[nH]c3ccc(Cl)cc23)=Nc2ccccc21

>  <log10 TGI>
1.25

$$$$
>  <molecule>
Cc1cc(Cl)ccc1N=C1NC(=O)C(CC(=O)Nc2cccc(C)c2C)S1 (stereo not given)

>  <log10 TGI>
1.64

$$$$
>  <molecule>
O=c1oc2ccccc2c(O)c1C(c1cccc(C(c2c(O)c3ccccc3oc2=O)c2c(O)c3ccccc3oc2=O)c1)c1c(O)c2ccccc2oc1=O

>  <log10 TGI>
1.73

$$$$
>  <molecule>
CCOC(=O)/C(C#N)=C\Sc1ccccc1

>  <log10 TGI>
1.48

$$$$

Give reported log10 TGI for C#CCOc1cccc(Nc2ncnc3cc(NC(=O)C=C)ccc23)c1 (SF-539 CNS)
1.15

Give reported log10 TGI for C=CC(=O)Nc1ccccc1CC(c1c[nH]c2ccccc12)c1c[nH]c2ccccc12 (SF-539 CNS)
1.56
